Assay: Plasma concentration in guinea pig at 0.3 mg/kg, sc after 4 hrs
Format: ADME, organism-based, Cavia porcellus
Set-up: dose 0.3 mg/kg, route subcutaneous
Property Name: concentration at 4 h (nM)
Number in nM, nothing else.

Compound Structure String | concentration at 4 h [nM]
CCCCNC(=O)c1ccc(Oc2ccc(CC(=O)O)cc2OC)c(NS(=O)(=O)c2ccc(Cl)cc2Cl)c1 | 117

# input for lookup
// query Could you share which concentration at 4 h value was measured for CC(C)(C)NC(=O)c1ccc(Oc2cc(F)c(CC(=O)O)cc2Cl)c(NS(=O)(=O)c2ccc(C3CC3)cc2Cl)c1 ?
// result 40

----------
System Name: Prostaglandin D2 receptor (Homo sapiens, UniProt Q13258)
Assay: Displacement of [3H]-PGD2 from human Prostanoid DP receptor expressed in human HEK293 cells by scintillation counter in presence of 0.5% bovine serum albumin
Type: cell-based
Property Name: pIC50
Just the number, please; pIC50 means minus log10 of the concentration in mol/L.

Guide cases for pIC50, answers given:
Compound Structure String | pIC50
O=C(O)Cc1cc(F)c(Oc2ccc(C(=O)NC3CCC3)cc2NS(=O)(=O)c2ccc(OC(F)(F)F)cc2Cl)cc1F | 7.70
CCCCNC(=O)c1ccc(Oc2ccc(CC(=O)O)cc2C#N)c(NS(=O)(=O)c2ccc(Cl)cc2Cl)c1 | 6.51
COc1cc(CC(=O)O)ccc1Oc1ccc(C(=O)NC2CCC2)cc1NS(=O)(=O)c1ccc(C(F)(F)F)cc1Cl | 7.89
O=C(O)Cc1ccc(Oc2ccc(C(=O)NC3CCC3)cc2NS(=O)(=O)c2ccc(Cl)cc2)c(Cl)c1 | 7.80
CCCCNC(=O)c1ccc(Oc2ccc(CC(=O)O)cc2F)c(NS(=O)(=O)c2ccc(Cl)cc2Cl)c1 | 7.52

# input for lookup
// query Could you share which pIC50 value was measured for CC(C)(C)NC(=O)c1ccc(Oc2cc(F)c(CC(=O)O)cc2Cl)c(NS(=O)(=O)c2ccc(OC(F)(F)F)cc2Cl)c1 ?
// result 7.85

----------
Assay: Clearance in dog at 0.5 mg/kg, iv
Assay type: ADME, organism-based, Canis lupus familiaris
Set-up: dose 0.5 mg/kg, route intravenous
Measurement Setup: in vivo
Property Name: clearance
Quote the value and follow it with the unit of measurement.

// query Could you share which clearance value was measured for CC(C)(C)NC(=O)c1ccc(Oc2cc(F)c(CC(=O)O)cc2Cl)c(NS(=O)(=O)c2ccc(C3CC3)cc2Cl)c1 ?
// result 15 mL/min/kg

----------
System Name: Prostaglandin D2 receptor (Homo sapiens, UniProt Q13258)
Sequence (Q13258 whole entry): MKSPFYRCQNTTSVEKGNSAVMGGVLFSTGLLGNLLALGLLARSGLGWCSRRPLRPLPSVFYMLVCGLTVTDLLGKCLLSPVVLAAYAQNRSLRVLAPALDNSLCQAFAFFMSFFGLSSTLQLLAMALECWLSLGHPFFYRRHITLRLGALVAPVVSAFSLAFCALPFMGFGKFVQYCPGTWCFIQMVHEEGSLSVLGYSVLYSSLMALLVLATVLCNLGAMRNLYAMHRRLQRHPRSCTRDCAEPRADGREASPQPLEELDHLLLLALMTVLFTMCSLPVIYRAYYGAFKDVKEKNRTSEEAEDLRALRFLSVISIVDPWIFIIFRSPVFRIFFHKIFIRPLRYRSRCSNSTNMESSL
Assay: Displacement of [3H]-PGD2 from human Prostanoid DP receptor expressed in human HEK293 cells by scintillation counter in presence of 50% human plasma
Assay type: cell-based
Property Name: pIC50
Just the number, please; pIC50 means minus log10 of the concentration in mol/L.

Guide cases for pIC50, answers given:
Compound Structure String | pIC50
CC(C)(C)NC(=O)c1ccc(Oc2cc(F)c(CC(=O)O)cc2Cl)c(NS(=O)(=O)c2ccc(C3CC3)cc2Cl)c1 | 7.46
O=C(O)Cc1cc(Cl)c(Oc2ccc(C(=O)NC3CCC3)cc2NS(=O)(=O)c2ccc(OC(F)(F)F)cc2Cl)cc1F | 7.72
O=C(O)Cc1ccc(Oc2ccc(C(=O)NC3CCC3)cc2NS(=O)(=O)c2ccc(Cl)cc2)c(Cl)c1 | 7.07

// query Form entry - test system: Prostaglandin D2 receptor (Homo sapiens, UniProt Q13258); read-out: pIC50; compound: CC(C)(C)NC(=O)c1ccc(Oc2ccc(CC(=O)O)cc2Cl)c(NS(=O)(=O)c2ccc(Cl)cc2)c1
// result 6.35

// query Form entry - test system: Prostaglandin D2 receptor (Homo sapiens, UniProt Q13258); read-out: pIC50; compound: O=C(O)Cc1cc(F)c(Oc2ccc(C(=O)NC3CCC3)cc2NS(=O)(=O)c2ccc(C(F)(F)F)cc2Cl)cc1F
// result 7.66

// query Form entry - test system: Prostaglandin D2 receptor (Homo sapiens, UniProt Q13258); read-out: pIC50; compound: O=C(O)Cc1ccc(Oc2ccc(C(=O)NC3CCC3)cc2NS(=O)(=O)c2ccc(Cl)cc2Cl)c(Cl)c1
// result 6.68

// query Form entry - test system: Prostaglandin D2 receptor (Homo sapiens, UniProt Q13258); read-out: pIC50; compound: COc1cc(CC(=O)O)ccc1Oc1ccc(C(=O)NC2CCC2)cc1NS(=O)(=O)c1ccc(C(F)(F)F)cc1Cl
// result 7.35

Data provenance: ChEMBL document CHEMBL1949635
